# IC50 per record follows
# tested system: human KHK-C (Homo sapiens (Human))
# protocol notes: KHK Biochemical Assay (IC50), ADP-Glo, KHK-C
# test conditions: ADP-Glo; average of at least two separate assays
Please give a number only; it is taken to be in nM.

Answered cases to consult:
molecule: C[C@H]1CCN1c1nc2c(c(-c3cccc(S(=N)(=O)CC(=O)N4CCC4)c3)n1)CCC2 (some centres unmarked)
IC50 [nM]: 208

molecule: COC(=O)N[C@H]1COc2cc(-c3nc(N4C[C@@H](O)[C@@H]4C)nc4c3CCC4(F)F)cc(OC)c21 (single isomer, unassigned)
IC50 [nM]: 17.8

molecule: C[C@H]1CCN1c1nc2c(c(-c3ccc4c(N)nccc4c3)n1)CCC2
IC50 [nM]: 1

molecule: C[C@H]1CCN1c1nc2c(c(-c3cccc(C(=O)NCCS(N)(=O)=O)c3)n1)CCC2
IC50 [nM]: 13.1

What value of IC50 on human KHK-C (Homo sapiens (Human)) does C[C@H]1[C@H](O)CN1c1nc(-c2cnc3c(c2)OC[C@H]3NS(C)(=O)=O)c2c(n1)C(F)(F)CC2 (single isomer, unassigned) have?
24.2

Recorded IC50 for CNC(=O)c1cccc(-c2nc(N3CC[C@@H]3C)nc3c2CCC3)c1 with human KHK-C (Homo sapiens (Human)), please?
50.3

Kindly state the measured IC50 obtained for C[C@H]1CCN1c1nc2c(c(-c3ccc4c(c3)C(=O)NC4=O)n1)CCC2 with human KHK-C (Homo sapiens (Human)).
173

Under human KHK-C (Homo sapiens (Human)): IC50 value of C[C@H]1CCN1c1nc2c(c(-c3cccc(C(=O)NCCC(N)=O)c3)n1)CCC2 ?
57.3

----------
# tested system: UniProt:P50053
# protocol notes: KHK Biochemical Assay (IC50), ADP-Glo, KHK-C
# test conditions: average of at least two separate assays
The following compounds are shown together with reported pIC50 values.
Just so you know, pIC50 here is -log10 of the concentration in molar units; reply with that number alone.

Example compounds with recorded pIC50:
compound: N#C[C@H]1CCN1c1nc(-c2ccc(C3(N)COC3)cc2)c2c(n1)C(F)(F)CC2 [Example 711]
pIC50: 8.21

compound: C[C@H]1[C@H](O)CN1c1nc(-c2ccc3c(c2)S(=O)(=O)CC3N)c2c(n1)C(F)(F)CC2 (stereo partly drawn) [Example 658]
pIC50: 8.32

compound: C[C@H]1CCN1c1nc2c(c(-c3ccc4nc(N)oc4c3)n1)CCC2 [Example 728]
pIC50: 7.65

Lookup: pIC50 / UniProt:P50053 / C[C@H]1CCN1c1nc2c(c(-c3cnc(N)nc3)n1)CCC2 [Example 732]
7.06

Notebook entry, UniProt:P50053 assay: pIC50 of C[C@H]1[C@H](O)CN1c1nc(-c2cc3c(c(C(N)=O)c2)CCO3)c2c(n1)C(F)(F)CC2 [Example 756] = ?
8.15

Query the reported pIC50 for UniProt:P50053; item: NC(=O)c1ccc(-c2nc(N3CC[C@@H]3C(=O)O)nc3c2CCC3)cc1 [Example 442]
5.80

Item: C[C@H]1[C@H](O)CN1c1nc(-c2ccc(S(C)(=N)=O)cc2)c2c(n1)C(F)(F)CC2 (stereo partly drawn) [Example 715] Test system: UniProt:P50053 Read-out: pIC50 Value: ?
7.45

Query for UniProt:P50053: what pIC50 does the record show for C[C@H]1[C@H](O)CN1c1nc(-c2cc(F)c3c(c2)CC[C@H]3NS(C)(=O)=O)c2c(n1)C(F)(F)CC2 (single isomer, unassigned) [Example 527] ?
8.10

pIC50 of C[C@H]1[C@H](O)CN1c1nc(-c2ccc3c(c2)OCC3NS(C)(=O)=O)c2c(n1)C(F)(F)CC2 (mixture of isomers) [Example 465] on UniProt:P50053?
8.85

----------
# tested system: UniProt P50053
# protocol notes: KHK Biochemical Assay (IC50), ADP-Glo, KHK-A
# test conditions: ADP-Glo; average of at least two separate assays
pIC50: −log10 of the molar value.
// Not satisfied strictly below 7 in pIC50; Satisfied otherwise

Some entries whose results are on file:
molecule: COc1ccc(-c2nc(N3C[C@@H](O)[C@@H]3C)nc3c2CCC3(F)F)cc1S(C)(=O)=O
label: Satisfied
--
molecule: C[C@H]1CCN1c1nc2c(c(-c3ccc4cn[nH]c4c3)n1)CCC2
label: Not satisfied
--
molecule: C[C@H]1CCN1c1nc2c(c(-c3ccc4c(N)nccc4c3)n1)CCC2
label: Satisfied
--
molecule: C[C@H]1CCN1c1nc2c(c(-c3ccccn3)n1)CCC2
label: Not satisfied
--
molecule: C[C@H]1[C@H](O)CN1c1nc(-c2ccc3c(c2)OC[C@@]32NC(=O)N(C)C2=O)c2c(n1)C(F)(F)CC2 (single isomer, unassigned)
label: Satisfied

Lab note: next molecule to report on.
Reported pIC50 at or above 7? C[C@H]1CCN1c1nc2c(c(-c3ccc4c(c3)OCCNC4=O)n1)CCC2
Satisfied

----------
Let's look at some compounds and their measured IC50.
# tested system: human KHK-C (Homo sapiens (Human), UniProt P50053)
# Sequence (P50053 whole entry): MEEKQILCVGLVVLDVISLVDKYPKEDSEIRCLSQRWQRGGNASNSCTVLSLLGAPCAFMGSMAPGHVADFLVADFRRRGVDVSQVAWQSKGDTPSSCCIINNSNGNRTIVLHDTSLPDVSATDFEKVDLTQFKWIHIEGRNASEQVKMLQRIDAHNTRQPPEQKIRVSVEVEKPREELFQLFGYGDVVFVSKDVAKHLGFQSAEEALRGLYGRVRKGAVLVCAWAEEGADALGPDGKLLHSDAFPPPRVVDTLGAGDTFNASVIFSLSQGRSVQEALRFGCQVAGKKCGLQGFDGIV
# protocol notes: KHK Biochemical Assay (IC50), ADP-Glo, KHK-C
# test conditions: ADP-Glo; average of at least two separate assays
Report only the number, with the unit nM understood.

Observe how each entry below is paired with its result.
compound: C[C@H]1CCN1c1nc2c(c(-c3ccc(C(O)CF)cc3)n1)CCC2 (some centres unmarked)
IC50, nM: 128
--
compound: C[C@H]1CCN1c1nc2c(c(-c3ccc(CNC(=O)c4ccccc4)cc3)n1)CCC2
IC50, nM: 253
--
compound: C[C@H]1CCN1c1nc(-c2cccc(C(N)=O)c2)c2c(n1)[C@H]1CC[C@@H]2C1
IC50, nM: 2930

Attention now turns to another entry.
Using the record for C[C@H]1CCN1c1nc2c(c(-c3ccc(C(N)=O)c(Cl)c3)n1)CCC2 , report its IC50.
49.7

----------
Attribute: IC50
# tested system: UniProt:P50053
# protocol notes: KHK Biochemical Assay (IC50), ADP-Glo, KHK-C
# test conditions: average of at least two separate assays

compound: NC1(c2ccc(-c3nc(N4CC(F)(F)[C@@H]4CO)nc4c3CCC4(F)F)cc2)CS(=O)(=O)C1 (single isomer, unassigned)
tested system: UniProt:P50053
IC50: 7.9 nM

compound: C[C@H]1[C@H](O)CN1c1nc(-c2ccc3c(c2)S(=N)(=O)CCNC3)c2c(n1)C(F)(F)CC2 (stereo partly drawn)
tested system: UniProt:P50053
IC50: 0.9 nM

compound: C[C@H]1CCN1c1nc2c(c(-c3ccc(CN)s3)n1)CCC2
tested system: UniProt:P50053
IC50: 6.6 nM

compound: COc1c(Cl)cc(-c2nc(N3C[C@@H](O)[C@@H]3C)nc3c2CCC3(F)F)cc1S(C)(=N)=O (stereo partly drawn)
tested system: UniProt:P50053
IC50: > 100 nM

compound: C[C@H]1CCN1c1nc2c(c(-c3ccc4nc(N)sc4c3)n1)CCC2
tested system: UniProt:P50053
IC50: 72.3 nM

// next entry
Param readout= IC50; system= UniProt:P50053; entry= CC[C@@H]1CNC(=O)c2ccc(-c3nc(N4C[C@@H](O)[C@@H]4C)nc4c3CCC4(F)F)cc2O1 (single isomer, unassigned) ; returns value.
7.5 nM

----------
# tested system: human KHK-C (Homo sapiens (Human), UniProt P50053)
# protocol notes: KHK Biochemical Assay (IC50), ADP-Glo, KHK-C
# test conditions: ADP-Glo; average of at least two separate assays
metric: IC50 (nM)
The response must be a number in nM with no trailing unit.

Use the examples below as a reference point.
compound: C[C@H]1CCN1c1nc2c(c(-c3ccc4c(c3)N(C)C(=O)CNC4)n1)CCC2 [Example 856]
IC50, nM: 175

compound: NC1(c2ccc(-c3nc(N4CCC4C(F)F)nc4c3CCC4(F)F)cc2)CS(=O)(=O)C1 (centres unmarked) [Example 799]
IC50, nM: 1.9

compound: C[C@H]1CCN1c1nc2c(c(-c3cn4ccnc4s3)n1)CCC2 [Example 121]
IC50, nM: 24.1

With those in mind, consider the next compound.
I am curious: what IC50 value has been reported for C[C@H]1CCN1c1nc2c(c(-c3ccc(C4(N5CCN(C)CC5)CC4)cc3)n1)CCC2 [Example 302] ?
849

----------
# tested system: KHK-C expressed in NRK-52E cells (Homo sapiens (Human), UniProt P50053)
# Sequence (P50053 whole entry): as above
# protocol notes: KHK-C Cell-based Assay (EC50), NRK CTG, fructose-mediated ATP-depletion
EC50 strictly under 100 nM means 1.0; at 100 nM or over means 0.0.

Is EC50 strictly under 100 nM for the entry C[C@H]1[C@H](O)CN1c1nc(-c2ccc(C#N)c(S(C)(=N)=O)c2)c2c(n1)C(F)(F)CC2 (stereo partly drawn) ?
0.0
